# protocol: chemical genetic growth profiling, strain panel (AID 1159580);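 note: tested at 20 µM; growth read once vehicle control cultures reached saturation at 30 °C; 1 = growth at the plate median or of vehicle wells; lower values mean less growth of the strain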
# conditionDescription: S. cerevisiae deletion strains, growth OD, locus YOR001W, strain rrp6
Screen size: about 5,500 compounds; about 2,000 (36%) were called active. Not shown: some 18% with an inconclusive outcome. Cut-off read from the data, not from the text of the source: active = normalized growth mostly below about 0.91 (no sharp cut-off); inconclusive = no clear call, values can overlap the other calls; inactive = mostly above about 0.92. The list shows a part of the results.
Hi! Could you answer with just one of these? true (active), false (inactive)

// known answers, use as guide
molecule | category
C[N+]1(C)CCc2cc3c(cc2[C@H]1C1OC(=O)c2c1ccc1c2OCO1)OCO3 (some centres undefined) | false
COc1ccc(Cc2nccc3cc(OC)c(OC)cc23)cc1OC | false
c1ccc2c(c1)[nH]c1cnccc12 | false
CCCCC(=O)O[C@H]1CCC2C3CCc4cc(O)ccc4C3CC[C@@]21C (some centres undefined) | false
CCCCC/C=C\C/C=C\C/C=C\C/C=C\CCCC(=O)O | false

I'd appreciate the recorded outcome for Cc1cc(O)c2c(c1O)C(=O)c1c(O)cc(C)c(O)c1C2=O from this test. false

Further, for O=C1c2ccc(O)c(O)c2C(=O)c2c(O)ccc(O)c21 ? true

Further, for N#C/C(=C\c1ccc(O)cc1)C(=O)O ? false

Further, for FC(F)(F)COCC(F)(F)F ? false

Further, for O=c1cc(-c2ccc(O)cc2)oc2cc(O[C@@H]3O[C@H](CO)[C@@H](O)[C@H](O)[C@H]3O[C@@H]3OC[C@](O)(CO)[C@H]3O)cc(O)c12 ? false

Further, for CC(=O)Oc1ccc2c(c1)CCC1C2CC[C@@]2(C)C1CC[C@@H]2OC(C)=O (some centres undefined) ? false

Further, for CCOc1ccc(Cc2nccc3cc(OCC)c(OCC)cc23)cc1OCC ? false

Further, for CC(=O)OC1CCC23C(=O)OC45CCC(C6=CC(=O)OC6)C4(C)CCC2C5CCC3(O)C1 (centres undefined) ? false

Further, for O=C(O)CCCN1C(=O)c2cccc3cccc(c23)C1=O ? false

###

# protocol: chemical genetic growth profiling, strain panel (AID 1159580)
# conditionDescription: S. cerevisiae deletion strains, growth OD, locus YAL021C, strain ccr4
In all, about 5,500 compounds went through this assay and about 2,000 (36%) were called active. Not shown: some 18% with an inconclusive outcome. Rule as the data show it: active = normalized growth mostly below about 0.91 (no sharp cut-off); inconclusive = no clear call, values can overlap the other calls; inactive = mostly above about 0.92. The list shows a part of the results.
Hi! Could you answer with just one of these? True for active, False for inactive

// known answers, use as guide
compound | category
CNC(=O)CSP(=S)(OC)OC | False
O=C1OC(=O)C2C3CCC(O3)C12 (centres undefined) | False
CCOC(=O)C1=C(C)NC(C)=C(C(=O)OC)C1c1cccc([N+](=O)[O-])c1 (centres undefined) | False

API: the following record is the query input.
I'd appreciate the recorded outcome for CC1=C2CCC3C(CC[C@]4(C)C(=O)CCC34)[C@@]2(C)CCC1=O (some centres undefined) from this test. True

###

compounds and their reported normalized growth
# protocol: chemical genetic growth profiling, strain panel (AID 1159580)
# conditionDescription: S. cerevisiae deletion strains, growth OD, locus YJR066W, strain TOR1, active compounds read low
Among all 5,500 compounds or so, about 2,000 (36%) were called active. Roughly 18% stayed inconclusive and do not appear here. Some of the results follow.
Output spec: single numeric token, no unit.

compound | normalized growth
CC(C(=O)O)c1ccc(N2Cc3ccccc3C2=O)cc1 (configuration not stated) | 0.914

Proceeding to the next compound to report its normalized growth.
Could you tell me which normalized growth is on file for Cc1nn(Cc2cccc(C(=O)O/N=C(/N)c3ccc(Cl)cc3)c2)c(C)c1Br ? 1.08

###

compounds and their reported normalized growth
# protocol: chemical genetic growth profiling, strain panel (AID 1159580)
# conditionDescription: S. cerevisiae deletion strains, growth OD, locus YKL067W, strain YNK1, active compounds read low
About 2,000 (36%) of roughly 5,500 compounds were called active. Roughly 18% stayed inconclusive and do not appear here. Some of the results follow.
Output spec: single numeric token, no unit.

Take a look at these entries with their results.
compound | numericResult
COc1cc(OC)cc(/C(N)=N\O)c1 | 0.961
COC(=O)c1ccc(Oc2c(C(F)(F)F)oc3cc(O)ccc3c2=O)cc1 | 0.956
O=C(SCc1c(Cl)cccc1Cl)c1ccc([N+](=O)[O-])o1 | 0.652
CC(=O)Oc1ccc2c(=O)c(Oc3ccc(Cl)cc3)c(C)oc2c1 | 0.94
COc1ccc(/C(C#N)=C2C=C/C(=N/O)C(Cl)=C\2)cc1 | 0.932
CCC1(c2ccccc2)OC(c2cc(Cl)cc(Cl)c2O)Nc2ccccc21 (stereo not given) | 0.696

Proceeding to the next compound to report its normalized growth.
Could you tell me which normalized growth is on file for FC(F)(F)c1ccc(C2Sc3ccccc3N=C3c4ccccc4CC32)cc1 (stereo not given) ? 1

###

# protocol: chemical genetic growth profiling, strain panel (AID 1159580)
# conditionDescription: S. cerevisiae deletion strains, growth OD, locus YOR070C, strain gyp1, active compounds read low
Among all 5,500 compounds or so, about 2,000 (36%) were called active. Not shown: some 18% with an inconclusive outcome. The list shows a part of the results.
molecules and their reported normalized growth
Output spec: single numeric token, no unit.

Could you tell me which normalized growth is on file for O=C1c2ccccc2-c2cccc3cccc1c23 ? 0.904

Further, for O=c1c(-c2ccc3c(c2)OCO3)coc2cc(O)ccc12 ? 0.99

Further, for COc1ccc2c(=O)c(-c3cc4c(cc3OC)OCO4)coc2c1 ? 1

###

# protocol: chemical genetic growth profiling, strain panel (AID 1159580);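 note: tested at 20 µM; growth read once vehicle control cultures reached saturation at 30 °C; 1 = growth at the plate median or of vehicle wells; lower values mean less growth of the strain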
# conditionDescription: S. cerevisiae deletion strains, growth OD, locus YOL006C, strain TOP1, active compounds read low
The campaign covered roughly 5,500 compounds. About 2,000 (36%) were called active. Not shown: some 18% with an inconclusive outcome. Some of the results follow.
In plain terms, low normalized growth, meaning strictly below 1, gives y, and everything else gives n.

// known answers, use as guide
compound | category
Cc1ccc(C(=O)NNC(=O)c2ccncc2)c(C)c1 | n
C[C@]12CCC3C(CC[C@H]4C[C@@H](Cl)CC[C@]34C)C1CCC2=O (some centres undefined) | y
COc1ccc(-n2c(SCc3ccc(Br)cc3)nnc2-c2ccco2)cc1 | y
CCOC(=N)c1ccc(F)c(Cl)c1 | n
C[C@]12CCC3C(CC[C@H]4C[C@@H](O)CC[C@]34C)C1CCC2=O (some centres undefined) | y
S=c1nc(-c2ccccc2)[nH][nH]1 | n
O=c1[nH]c2ccccc2n1C1CCN(CCCC(c2ccc(F)cc2)c2ccc(F)cc2)CC1 | y
CNC(=O)CSP(=S)(OC)OC | n

Is normalized growth strictly under 1 for the entry CCS(=O)(=O)CCn1c([N+](=O)[O-])cnc1C ? n

Further, for CCOc1nc2cccc(C(=O)OC(C)OC(=O)OC3CCCCC3)c2n1Cc1ccc(-c2ccccc2-c2nn[nH]n2)cc1 (centres undefined) ? y

###

molecules and their reported normalized growth
# protocol: chemical genetic growth profiling, strain panel (AID 1159580);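 note: tested at 20 µM; growth read once vehicle control cultures reached saturation at 30 °C; 1 = growth at the plate median or of vehicle wells; lower values mean less growth of the strain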
# conditionDescription: S. cerevisiae deletion strains, growth OD, locus YPL240C, strain hsp82, active compounds read low
The whole screen tested about 5,500 compounds, of which about 2,000 (36%) were called active. Not shown: some 18% with an inconclusive outcome. The list shows a part of the results.
Output spec: single numeric token, no unit.

Take a look at these entries with their results.
molecule | numericResult
O=C1c2ccccc2-c2cccc3cccc1c23 | 0.979
c1ccc2c(c1)[nH]c1cnccc12 | 1.02
CC1(C)C[C@@H]2C(=O)CC[C@H]3O[C@]3(C)CC[C@H]21 | 1.02
O=c1cc(-c2ccc(O)cc2)oc2cc(O[C@@H]3O[C@H](CO)[C@@H](O)[C@H](O)[C@H]3O[C@@H]3OC[C@](O)(CO)[C@H]3O)cc(O)c12 | 1

Could you tell me which normalized growth is on file for C[C@]12CCC3C(CC[C@H]4C[C@@H](O)CC[C@]34C)C1CCC2=O (some centres undefined) ? 1.01

Further, for Cc1cc(C)nc(NS(=O)(=O)c2ccc(N)cc2)n1 ? 0.979

###

# protocol: chemical genetic growth profiling, strain panel (AID 1159580);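 note: tested at 20 µM; growth read once vehicle control cultures reached saturation at 30 °C; 1 = growth at the plate median or of vehicle wells; lower values mean less growth of the strain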
# conditionDescription: S. cerevisiae deletion strains, growth OD, locus YIR030C, strain dcg1, active compounds read low
Screen size: about 5,500 compounds; about 2,000 (36%) were called active. About 18% were inconclusive and are not listed. Some of the results follow.
readoutName: normalized growth

Could you tell me which normalized growth is on file for CC(C)=CCc1c(O)cc2occ(-c3ccc4c(c3)OCO4)c(=O)c2c1O ? 1.02 (inactive)

Further, for CC(C)(O)CC[C@@H](O)[C@](C)(O)C1CC[C@@]2(O)C3=CC(=O)C4C[C@@H](O)[C@@H](O)C[C@]4(C)C3CC[C@]12C (stereo not given in full) ? 1 (inactive)

Further, for CCOc1ccc(Cc2nccc3cc(OCC)c(OCC)cc23)cc1OCC ? 0.971 (inactive)

Further, for O=c1ccc2cc(O[C@@H]3O[C@H](CO)[C@@H](O)[C@H](O)[C@H]3O)c(O)cc2o1 ? 0.986 (inactive)

Further, for CCCCC(=O)N(Cc1ccc(-c2ccccc2-c2nn[nH]n2)cc1)[C@H](C(=O)O)C(C)C ? 0.991 (inactive)
